Hey, just so you know, these numbers are from paper PMC8445441.

tested on: P. aeruginosa PAK; experiment: microbe, parasite or virus in culture; settings: strain PAK; antibiotic + D-11 (MICb/MICbc 64/4)
Positions of bridges follow the written chain, without caps; N, C: chain ends. Non-standard residues stand in square brackets, D forms with d. Residues, ends and D or L forms follow the SMILES beside them. *: point of attachment. X1 = CC[C@H](C)CCCCC(=O)*; Dab = NCC[C@H](N)C(=O)O
Reported FICI values for the following compounds.

CC[C@H](C)CCCCC(=O)N[C@@H](CCN)C(=O)N[C@H](C(=O)N[C@@H](CCN)C(=O)N[C@H]1CCNC(=O)[C@H]([C@@H](C)O)NC(=O)[C@H](CCN)NC(=O)[C@H](CCN)NC(=O)[C@H](CC(C)C)NC(=O)[C@@H](CC(C)C)NC(=O)[C@H](CCN)NC1=O)[C@@H](C)O [Colistin] (X1-[Dab]T[Dab][Dab][Dab][dL]L[Dab][Dab]T; lactam 4-C (inferred); N-terminus assumed) :: 0.079
CN(C)c1cc(NC(=O)CNC(C)(C)C)c(O)c2c1C[C@H]1C[C@H]3[C@H](N(C)C)C(O)=C(C(N)=O)C(=O)[C@@]3(O)C(O)=C1C2=O :: 0.313
CO[C@H]1/C=C/O[C@@]2(C)Oc3c(C)c(O)c4c(O)c(c(/C=N/N5CCN(C)CC5)c(O)c4c3C2=O)NC(=O)/C(C)=C\C=C\[C@H](C)[C@H](O)[C@@H](C)[C@@H](O)[C@@H](C)[C@H](OC(C)=O)[C@@H]1C :: 0.066

Value lookup for FICI; key = "CN(C)[C@@H]1C(O)=C(C(N)=O)C(=O)[C@@]2(O)C(O)=C3C(=O)c4c(O)c(NC(=O)CN5CCCC5)cc(F)c4C[C@H]3C[C@@H]12"
0.188

====

test system: P. aeruginosa NR-31040; experiment: microbe, parasite or virus in culture; settings: strain NR-31040; antibiotic + D-11 (MICb/MICbc 128/4)
Reported FICI values for the following compounds.
Could you keep your reply to the number by itself?

// known answers, use as guide
CN(C)[C@@H]1C(O)=C(C(N)=O)C(=O)[C@@]2(O)C(O)=C3C(=O)c4c(O)c(NC(=O)CN5CCCC5)cc(F)c4C[C@H]3C[C@@H]12 :: 0.094
CO[C@H]1/C=C/O[C@@]2(C)Oc3c(C)c(O)c4c(c3C2=O)C2=NC3(CCN(CC(C)C)CC3)NC2=C(NC(=O)/C(C)=C\C=C\[C@H](C)[C@H](O)[C@@H](C)[C@@H](O)[C@@H](C)[C@H](OC(C)=O)[C@@H]1C)C4=O :: 0.094
CC[C@H]1OC(=O)[C@H](C)[C@@H](O[C@H]2C[C@@](C)(OC)[C@@H](O)[C@H](C)O2)[C@H](C)[C@@H](O[C@@H]2O[C@H](C)C[C@H](N(C)C)[C@H]2O)[C@](C)(OC)C[C@@H](C)C(=O)[C@H](C)[C@@H](O)[C@]1(C)O :: 0.281
O=C(N[C@H](CO)[C@H](O)c1ccc([N+](=O)[O-])cc1)C(Cl)Cl :: 0.063

Please find the next compound below.
Value lookup for FICI; key = "CN(C)c1cc(NC(=O)CNC(C)(C)C)c(O)c2c1C[C@H]1C[C@H]3[C@H](N(C)C)C(O)=C(C(N)=O)C(=O)[C@@]3(O)C(O)=C1C2=O"
0.094
